# test.system: HLA-A*68:02
# assay.name: IEDB peptide-MHC binding, purified MHC/competitive/radioactivity; filed as Kd, often an IC50 or EC50 that approximates it; bounds were set here for any values at or beyond the usual limits of such assays
# experimental.context: source organism: Homo sapiens
pKd: −log10 of the molar value.
readout.kind: pKd

SLTCEVDAL
5.51
TMEAMRIMGI
7.66
NLPIYSEEI
7.41

###

# test.system: HLA-B*39:01
# assay.name: IEDB peptide-MHC binding, purified MHC/competitive/fluorescence; filed as Kd, often an IC50 or EC50 that approximates it; bounds were set here for any values at or beyond the usual limits of such assays
# experimental.context: source organism: Serratia marcescens
pKd: −log10 of the molar value.
readout.kind: pKd

SRAGISVVL
8.33
